Measured Target: FGFR2 (Homo sapiens)
Sequence (P21802 22-821, species assumed): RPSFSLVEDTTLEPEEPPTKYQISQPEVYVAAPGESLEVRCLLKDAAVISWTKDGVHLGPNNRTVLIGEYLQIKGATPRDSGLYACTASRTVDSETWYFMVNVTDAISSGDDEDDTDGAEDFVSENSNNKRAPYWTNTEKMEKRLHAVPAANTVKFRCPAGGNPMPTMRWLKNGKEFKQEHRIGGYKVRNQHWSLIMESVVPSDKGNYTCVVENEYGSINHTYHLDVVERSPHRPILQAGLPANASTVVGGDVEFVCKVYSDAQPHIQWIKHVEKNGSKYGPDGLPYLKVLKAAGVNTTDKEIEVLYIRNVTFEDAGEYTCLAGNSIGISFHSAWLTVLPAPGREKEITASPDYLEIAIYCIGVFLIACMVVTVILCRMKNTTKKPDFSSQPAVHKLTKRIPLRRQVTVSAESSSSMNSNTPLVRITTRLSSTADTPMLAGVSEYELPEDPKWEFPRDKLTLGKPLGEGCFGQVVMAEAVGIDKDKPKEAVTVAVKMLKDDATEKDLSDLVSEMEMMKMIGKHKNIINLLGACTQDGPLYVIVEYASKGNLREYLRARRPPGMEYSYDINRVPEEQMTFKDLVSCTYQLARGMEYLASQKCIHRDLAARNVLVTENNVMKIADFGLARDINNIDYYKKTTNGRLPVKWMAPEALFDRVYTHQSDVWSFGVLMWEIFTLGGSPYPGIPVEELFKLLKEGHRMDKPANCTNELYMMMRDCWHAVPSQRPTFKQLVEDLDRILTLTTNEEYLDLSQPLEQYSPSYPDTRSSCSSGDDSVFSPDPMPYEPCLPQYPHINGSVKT
Outcome Measure: IC50 (nM)
State the answer as a number, implicitly in nM.

Task: Return reported IC50; argument: COc1cc(OC)c(Cl)c(-c2cc3cnc(Nc4ccc(N5CCC(N6CCOCC6)CC5)cc4)nc3n3cnnc23)c1
Output: 1.7

---

Experimental Protocol: Pharmacokinetic study of compound of Formula I and maleate salt crystalline form 1 (Example 22)
Type: in vivo
Assay Context: male, rat, plasma; SD rats, oral, 10 mg/kg, 10% DMSO/10% Solutol/80% Water
Outcome Measure: Tmax (h)
Expressed in h, but write only the number.

Task: Which value of Tmax has been reported for COc1cc(OC)c(Cl)c(-c2cc3cnc(Nc4ccc(N5CCC(N6CCOCC6)CC5)cc4)nc3n3cnnc23)c1 in the records?
Output: 6

---

Experimental Protocol: Pharmacokinetic study of compound of Formula I and maleate salt crystalline form 1 (Example 22)
Type: in vivo
Assay Context: male, rat, plasma; SD rats, oral, 10 mg/kg, 10% DMSO/10% Solutol/80% Water
Description: Drugs and reagents: 6-(2-chloro-3,5-dimethoxyphenyl)-N-(4-(4-morpholinopiperidin-1-yl)phenyl)-[1,2,4]triazolo[4′, 3′:1,6]pyrido[2,3-d]pyrimidin-2-amine (compound of Formula I), and maleate salt crystalline form 1 of the compound of Formula I used in this study were grounded to fine particles. The material content (purity) was not less than 99.0%. […] The samples were analyzed by AB4000 API LC/MS combined with HPLC. […]
Outcome Measure: AUC(0-inf) (ng·h/mL)
Could you give me the number in ng·h/mL? Just the number is fine.

Task: Fill in the blank: the reported AUC(0-inf) of COc1cc(OC)c(Cl)c(-c2cc3cnc(Nc4ccc(N5CCC(N6CCOCC6)CC5)cc4)nc3n3cnnc23)c1 is ____.
Output: 6520

---

Experimental Protocol: Pharmacokinetic study of compound of Formula I and salt forms (Example 23)
Assay type: in vivo
Assay Context: male, rat, plasma; SD rats, oral, 10 mg/kg, prepared in purified water 0.5 mg/mL; read-out: AUC(0-24)
Outcome Measure: AUC(0-t) (ng·h/mL)
Unit ng·h/mL implied. Number only.

Task: Fill in: AUC(0-t) of COc1cc(OC)c(Cl)c(-c2cc3cnc(Nc4ccc(N5CCC(N6CCOCC6)CC5)cc4)nc3n3cnnc23)c1 is ___
Output: 786

---

Experimental Protocol: Pharmacokinetic study of compound of Formula I and maleate salt crystalline form 1 (Example 22)
Type: in vivo
Assay Context: male, rat, plasma; SD rats, oral, 10 mg/kg, 10% DMSO/10% Solutol/80% Water; read-out: AUC(0-24)
Outcome Measure: AUC(0-t) (ng·h/mL)
Give the number; ng·h/mL is assumed, so skip it.

Task: For the compound COc1cc(OC)c(Cl)c(-c2cc3cnc(Nc4ccc(N5CCC(N6CCOCC6)CC5)cc4)nc3n3cnnc23)c1 [compound of Formula I] , what AUC(0-t) is on record?
Output: 5870

---

Experimental Protocol: Pharmacokinetic study of compound of Formula I and maleate salt crystalline form 1 (Example 22)
Assay type: in vivo
Assay Context: male, rat, plasma; SD rats, oral, 10 mg/kg, 10% DMSO/10% Solutol/80% Water
Outcome Measure: Cmax (ng/mL)
Note: unit ng/mL is implicit; provide only the numeric part.

Task: Which Cmax value is on record for COc1cc(OC)c(Cl)c(-c2cc3cnc(Nc4ccc(N5CCC(N6CCOCC6)CC5)cc4)nc3n3cnnc23)c1 ?
Output: 443

---

Experimental Protocol: Pharmacokinetic study of compound of Formula I and salt forms (Example 23)
Assay type: in vivo
Assay Context: male, rat, plasma; SD rats, oral, 10 mg/kg, prepared in purified water 0.5 mg/mL
Outcome Measure: Cmax
Reply with the number and its unit after it.

Task: I would be grateful if you could share the reported Cmax for COc1cc(OC)c(Cl)c(-c2cc3cnc(Nc4ccc(N5CCC(N6CCOCC6)CC5)cc4)nc3n3cnnc23)c1 [compound of Formula I] .
Output: 0.179 µg/mL
